Listed next: entries and their corresponding CC50 at 4 days.
# Tested on: MT-2 cells
# TEST PROTOCOL: In vitro cytotoxicity on MT-2 cells
# Assay type: cell-based
# CONDITIONS: human

Cc1ccc(C)n1Cc1ccc(C(=O)O)cc1: 299 µM

Recorded CC50 at 4 days of O=C(O)Cc1ccc(-n2cccc2)cc1 , please. > 498 µM

Recorded CC50 at 4 days of O=C(O)c1ccc(Cn2cccc2)cc1 , please. > 498 µM

Recorded CC50 at 4 days of O=C(O)c1ccc(-n2cccc2)cc1 , please. > 535 µM

Recorded CC50 at 4 days of O=C(O)c1cc(-n2cccc2)ccc1O [Compound A2, N-(3-Carboxy-4-hydroxy)phenylpyrrole] , please. > 493 µM

Recorded CC50 at 4 days of O=C(O)Cc1ccc(Cn2cccc2)cc1 , please. > 465 µM

Recorded CC50 at 4 days of Cc1ccc(C)n1-c1ccc(Cl)cc1C(=O)O , please. > 400 µM
